Ref: paper PMC6151660

Parameter: CC50 at 48 h. Scope: all listed entries.
# method-summary: SH-SY5Y cytotoxicity MTT assay
# Format: cell-based, human
# assay-conditions: human, SH-SY5Y neuroblastoma cells, MTT, read-out: CC 50% SH-SY5Y (range where 50% cell toxicity will be observed)

Cc1c(C#N)c(=O)oc2cc(OCCN3CCC(Cc4ccccc4)CC3)ccc12
10 to 50 µM
Cc1c(C#N)c(=O)oc2cc(OCCN3CCN(Cc4ccc(Br)cc4)CC3)ccc12
50 to 100 µM

Then there is this compound:
The compound listed as O=c1cc(C(F)(F)F)c2ccc(OCCN3CCN(Cc4ccc(Br)cc4)CC3)cc2o1 shows CC50 at 48 h equal to 10 to 50 µM
